- Test system: SR leukemia
- assayText: NCI-60 one-dose screen, 48 h
- experimentalContext: 10 µM unless noted
This is part of a sample that, as a whole, favours compounds with a hit. Of some 83,000 tested, about 20% had one in any assay. Activity calls are given as the source filed them. How the source made its calls: active means growth percent below 10; inactive means the rest.
Your answer must be one of the following: active, inactive

# count of solved cases: 5
# compound, label
data = [
    ("O=Nc1ccc(O)c2ccccc12", "inactive"),
    ("Cc1cc2c(-c3nc4ccccc4n3C)c(O)c(O)cc2c(O)c1-c1c(C)cc2c(-c3nc4ccccc4n3C)c(O)c(O)cc2c1O", "inactive"),
    ("CCOC(=O)C1=C(c2ccccc2)NC(=O)NC1CN1C(=O)c2ccccc2C1=O (stereo unspecified)", "active"),
    ("Cc1ccc([C@@H]2C[C@H](O)Cc3ccccc3N2)s1", "inactive"),
    ("Clc1ccc(N/N=C/c2ccccn2)nc1", "active"),
]

Now look at this one.
Request: What did the test return for `CCOC(=O)c1cc(-c2ccc(OC)cc2)[nH]c1NNC(=O)CCOC` ?
Result: inactive

* * *

- Tested on: 786-0 renal
- assayText: NCI-60 one-dose screen, 48 h
- experimentalContext: 10 µM unless noted
Compounds without any hit were thinned out: in the full panel of roughly 83,000, 20% have a hit. The source made the active and inactive calls. How the source made its calls: active means growth percent below 10; inactive means the rest.
Your answer must be one of the following: active, inactive

# count of solved cases: 3
# molecule, targetSystem, label
measured = [
    ("CCn1cc(C(=O)O)c(=O)c2cc(F)c(N3CCN(S(=O)(=O)c4ccc(Cl)cc4)CC3)cc21", "786-0 renal", "inactive"),
    ("COc1cc(-c2nn(-c3ccc(NC(=O)c4ccc(Cl)c(C(F)(F)F)c4)cc3)cc2-c2ccncc2)ccc1Cl", "786-0 renal", "active"),
    ("CC/C(=N\\Nc1nc2ccccc2n1C)c1ccccn1", "786-0 renal", "active"),
]

Request: What did the test return for `COc1cc(OC)c2c(=O)cc(-c3ccccc3)oc2c1` ?
Result: inactive

Request: What did the test return for `O=C(/C=C\c1ccc(NCc2ccc(C(=O)O)cc2)cc1)CCl` ?
Result: inactive

Request: What did the test return for NC(=O)CC(NC(=O)COc1ccc(Cl)cc1Cl)C(=O)O (stereo unspecified) ?
Result: inactive

Request: What did the test return for `COc1ccc(/C=C(/C(=O)N2CCCCC2)c2cc(OC)c(OC)c(OC)c2)cc1` ?
Result: inactive

Request: What did the test return for `O=C(NC(=S)NNC(=S)NNc1ccccc1)c1ccccc1` ?
Result: inactive

* * *

- Test system: UACC-257 melanoma
- assayText: NCI-60 one-dose screen, 48 h (100 = growth as untreated, 0 = no growth, -100 = all killed)
- experimentalContext: 10 µM unless noted
About 83,000 compounds went through this panel and 20% of them were active in at least one assay; those are over-represented in the sample as a whole.
Quick rule for you: growth under 90% gets T, anything else gets F.

# compound, label
records = [
    ("CC(=O)Nc1nc(C)c(C(=O)NN)s1", "F"),
    ("CC(=O)CCS(=O)c1ccccc1 (stereo unspecified)", "F"),
    ("CC1=C[C@@H]2c3c(c(O)c(O)c4oc5cc(O)cc(O)c5c(=O)c34)[C@@H](c3cc(O)c(O)c4oc5cc(O)cc(O)c5c(=O)c34)[C@@H]2C(C)(C)C1", "T"),
    ("Oc1ccc(CN(Cc2ccc(C(F)(F)F)cc2)Cc2ccc(O)c3ncccc23)c2cccnc12", "T"),
    ("C#CCCCCCCC[C@@H]1OC(=O)[C@H]([C@@H](C)CC)NC(=O)[C@H]([C@@H](C)CC)NC(=O)CC(=O)[C@@H]1C", "F"),
    ("COC1=C(OC)C(=O)c2ccccc2C1=O", "T"),
]

Request: Is growth strictly under 90% for the entry `Cc1ncc(C(=O)Nc2ccc(CN3CCN(C)CC3)c(C(F)(F)F)c2)cc1C#Cc1cnc(NC2CC2)c2ncccc12` ?
Result: T

Request: Is growth strictly under 90% for the entry Nc1nc2c(c3cnccc13)C(c1ccc(Cl)c(Cl)c1)Cc1cnccc1-2 (stereo unspecified) ?
Result: T

* * *

growth for assorted compounds
- Tested on: HCC-2998 colon
- assayText: NCI-60 one-dose screen, 48 h (100 = growth as untreated, 0 = no growth, -100 = all killed)
- experimentalContext: 10 µM unless noted
This is part of a sample that, as a whole, favours compounds with a hit. Of some 83,000 tested, about 20% had one in any assay. The source made the active and inactive calls. The calls were made as follows: active = growth percent below 10; inactive = the rest.

Here is how some compounds turned out for growth.
# compound, reportedValue
rows = [
    ("Cc1[nH]n(C(=S)Nc2nc3cc(Cl)c(F)cc3s2)c(=O)c1N=Nc1ccc(F)c(Cl)c1", "114% (inactive)"),
    ("COc1cc2c(/C=C3\\C(=O)Nc4ccc(Br)cc43)c(Cl)n(C)c2cc1C", "-39.4% (active)"),
    ("CC(=O)Oc1cc2ccccc2cc1C(C)C", "99.2% (inactive)"),
    ("COc1ccc2cnc(N)c(C#Cc3cc(C(=O)Nc4ccc(CN5CCN(C)CC5)c(C(F)(F)F)c4)cnc3C)c2c1", "86.1% (inactive)"),
    ("CCCC[N+](C)(N)CCCC", "111% (inactive)"),
    ("CCCCCCCCCCN1CC2CCCCC2C1 (stereo not drawn)", "82.9% (inactive)"),
    ("Nc1nc2cc(O)ccc2n2cc3c(F)cccc3c12", "58.5% (inactive)"),
    ("Cc1ccc(C(=O)NN)cc1", "99.5% (inactive)"),
]

Request: // returns reported growth for input `CC1C(=O)CCCC1=O`
Result: 109% (inactive)

* * *

- Tested on: ACHN renal
- assayText: NCI-60 one-dose screen, 48 h
- experimentalContext: 10 µM unless noted
About 83,000 compounds went through this panel and 20% of them were active in at least one assay; those are over-represented in the sample as a whole. Active and inactive are the calls of the source. The calls were made as follows: active = growth percent below 10; inactive = the rest.
Your answer must be one of the following: active, inactive

# compound, label
rows = [
    ("CCn1cnc(C[C@H](NC(=O)[C@@H](NC(=O)Nc2cc(C(F)(F)F)cc(C(F)(F)F)c2)C(C)C)C(=O)OC)c1", "active"),
    ("COc1cc2cc3cc4cc(OC)c(OC)cc4c(C)[n+]3cc2cc1OC (tested in a mixture with another compound)", "inactive"),
    ("C=CCNC(=S)NNc1ccc([N+](=O)[O-])cn1", "inactive"),
    ("CC(=O)CCS(=O)c1ccccc1 (stereo not given)", "inactive"),
    ("COC(=O)c1ccc2[nH]c(O)c(C(=Nc3ccc(N(C)C(=O)CN4CCN(C)CC4)cc3)c3ccc([N+](=O)[O-])cc3)c2c1", "inactive"),
]

Now look at this one.
Request: What did the test return for `COc1ccc(Cn2cc3c(c2)-c2oncc2CC3)cc1OC` ?
Result: inactive

* * *

- System: MDA-MB-435 melanoma
- assayText: NCI-60 one-dose screen, 48 h
- experimentalContext: 10 µM unless noted
This is part of a sample that, as a whole, favours compounds with a hit. Of some 83,000 tested, about 20% had one in any assay. Active and inactive are the calls of the source. The calls were made as follows: active = growth percent below 10; inactive = the rest.
Your answer must be one of the following: 1 = active, -1 = inactive

# compound, label
rows = [
    ("COc1cc2cc3cc4cc(OC)c(OC)cc4c(C)[n+]3cc2cc1OC (tested in a mixture with another compound)", -1),
    ("CCCCCCCCCCCCCCCCNC(=S)N/N=C/c1ccc(OC)cc1", -1),
]

Request: What did the test return for COC(=O)C1CC(=O)N(C(=O)Nc2ccc(Cl)cc2Cl)C1 (stereo not given) ?
Result: -1

Request: What did the test return for `Cc1[nH]n(C(=S)Nc2nc3cc(Cl)c(F)cc3s2)c(=O)c1N=Nc1ccc(F)c(Cl)c1` ?
Result: -1

* * *

- Tested on: T-47D breast
- assayText: NCI-60 one-dose screen, 48 h
- experimentalContext: 10 µM unless noted
About 83,000 compounds went through this panel and 20% of them were active in at least one assay; those are over-represented in the sample as a whole. Calls of active or inactive are those of the source. Rule for the calls: active = growth percent below 10; inactive = the rest.
Your answer must be one of the following: True (active), False (inactive)

# count of solved cases: 5
# molecule, label
rows = [
    ("CC(=O)N(N=O)c1ccc([N+](=O)[O-])cc1Cl", "False"),
    ("CCOC(=O)CSSCC(=O)OCC", "False"),
    ("COC(=O)/C=C1/CCCCC1(C)C(=O)OC (stereo not given)", "False"),
    ("N=C(N)c1ccc(-c2ccc(-c3cc(Cl)cc(Cl)c3)s2)cc1", "True"),
    ("O=S(=O)(Cc1cccc2c(CS(=O)(=O)c3ccc(Cl)cc3)cccc12)c1ccc(Cl)cc1", "False"),
]

Request: What did the test return for `CCn1cnc(C[C@H](NC(=O)[C@@H](NC(=O)Nc2cc(C(F)(F)F)cc(C(F)(F)F)c2)C(C)C)C(=O)OC)c1` ?
Result: True

Request: What did the test return for COC(=O)C(Cc1cnc[nH]1)N1CC(=O)N2[C@@H](c3ccccc3)SC[C@H]2C1=O (stereo not given in full) ?
Result: False

Request: What did the test return for `CCOC(=O)c1c(C)oc2ncnc(Nc3ccc(NC(=O)Nc4ccc(CC)cc4)cc3)c12` ?
Result: False

Request: What did the test return for `N=C(N)N=Nc1ccc(NN=C(N)N)cc1` ?
Result: False

Request: What did the test return for NNC(=S)N1N=C(c2cc3ccccc3o2)CC1c1c[nH]c2ccccc12 (stereo not given) ?
Result: False
